System: LCLC-103H
Assay: relative viability (nuclei count vs DMSO), 5 days (fraction); higher = more cells survive
Settings: first compound 0.253 µM
Entries annotated with measured relative viability
Please reply with the number alone, leaving off any unit.

Example results:
Measured relative viability for this entry Cc1cnc(-c2cnc(NCCNc3ccc(C#N)cn3)nc2-c2ccc(Cl)cc2Cl)[nH]1 + CS(=O)(=O)N1CCN(Cc2cc3nc(-c4cccc5[nH]ncc45)nc(N4CCOCC4)c3s2)CC1 [Pictilisib] (partner 1 µM) on LCLC-103H: 0.542

Measured relative viability for this entry Cc1cnc(-c2cnc(NCCNc3ccc(C#N)cn3)nc2-c2ccc(Cl)cc2Cl)[nH]1 + C[C@@H](Oc1cc(-c2cnn(C3CCNCC3)c2)cnc1N)c1c(Cl)ccc(F)c1Cl [Crizotinib] (partner 1 µM) on LCLC-103H: 1.12

Measured relative viability for this entry O=c1[nH]c2ccccc2n1C1CCN(CCCC(c2ccc(F)cc2)c2ccc(F)cc2)CC1 [Pimozide] + COc1cccc2cc(-c3nc([C@H]4CC[C@H](C(=O)O)CC4)n4ncnc(N)c34)[nH]c12 [OSI-027] (partner 0.5 µM) on LCLC-103H: 0.452

Measured relative viability for this entry Cc1cnc(-c2cnc(NCCNc3ccc(C#N)cn3)nc2-c2ccc(Cl)cc2Cl)[nH]1 + CCNC(=O)c1noc(-c2cc(C(C)C)c(O)cc2O)c1-c1ccc(CN2CCOCC2)cc1 [Luminespib] (partner 0.01 µM) on LCLC-103H: 0.865

We next turn to a different compound, shown below.
Measured relative viability for this entry O=c1[nH]c2ccccc2n1C1CCN(CCCC(c2ccc(F)cc2)c2ccc(F)cc2)CC1 [Pimozide] + NC(=O)Nc1cc(-c2cccc(F)c2)sc1C(=O)N[C@H]1CCCNC1 [AZD7762] (partner 0.2 µM) on LCLC-103H: 0.778
